Measured selectivity ratio accompanies every entry in the list below.
# Experimental details: Selectivity index, HC50 for hemolytic activity in sheep RBC to MIC for antibacterial activity against Staphylococcus aureus ATCC29213
# Format: toxicity
# Details: sheep red blood cells (erythrocytes), read-out: Selectivity Index
The response must contain the number and no unit.

Solved entries:
C=CCc1ccc(O)c(-c2cc(CC=C)ccc2OCC[N+](C)(C)CC(=O)NCCCC)c1.[Br-] :: 143
C=CCc1ccc(OCC[N+](C)(C)CC(=O)NCCCCCC)c(-c2ccc(OCC[N+](C)(C)CC(=O)NCCCCCC)c(CC=C)c2)c1.[Br-].[Br-] :: 117
C=CCc1ccc(OCCCC[N+](C)(C)CC(=O)N(CCCC)CCCC)c(-c2ccc(OCCCC[N+](C)(C)CC(=O)N(CCCC)CCCC)c(CC=C)c2)c1.[Br-].[Br-] :: 316
C=CCc1ccc(O)c(-c2cc(CC=C)ccc2OCCCC[N+](C)(C)CC(=O)NCCCCC)c1.[Br-] :: 322

[Q] Which value of selectivity ratio has been reported for C=CCc1ccc(OCCCC[N+](C)(C)CC(=O)NCCC)c(-c2ccc(OCCCC[N+](C)(C)CC(=O)NCCC)c(CC=C)c2)c1.[Br-].[Br-] in the records?
[A] 322

[Q] Which value of selectivity ratio has been reported for C=CCc1ccc(OCCCC[N+](C)(C)CC(=O)NCCCC)c(-c2ccc(OCCCC[N+](C)(C)CC(=O)NCCCC)c(CC=C)c2)c1.[Br-].[Br-] in the records?
[A] 266

[Q] Which value of selectivity ratio has been reported for C=CCc1ccc(O)c(-c2cc(CC=C)ccc2OCC[N+](C)(C)CC(=O)NCCCCC)c1.[Br-] in the records?
[A] 80.7

----------
# Tested on: Bacillus subtilis
# Experimental details: Antibacterial activity against Bacillus subtilis assessed as inhibition of visible growth incubated for 16 to 18 hrs by CLSI method
# Format: functional
# Details: time 16-18 hrs, read-out: MIC100
Measured MIC accompanies every entry in the list below.
Provide the reading as a plain figure in µg/mL.

Solved entries:
C=CCc1ccc(OCC[N+](C)(C)CC(=O)NCCCC)c(-c2ccc(OCC[N+](C)(C)CC(=O)NCCCC)c(CC=C)c2)c1.[Br-].[Br-] :: 2
C=CCc1ccc(O)c(-c2cc(CC=C)ccc2OCCC[N+](C)(C)CC(=O)N(CCCC)CCCC)c1.[Br-] :: 0.5
C=CCc1ccc(OCCC[N+](C)(C)CC(=O)NCCCCCC)c(-c2ccc(OCCC[N+](C)(C)CC(=O)NCCCCCC)c(CC=C)c2)c1.[Br-].[Br-] :: 2

Continue with the next compound.
[Q] Which value of MIC has been reported for C=CCc1ccc(O)c(-c2cc(CC=C)ccc2OCC[N+](C)(C)CC(=O)NCCCCC)c1.[Br-] in the records?
[A] 4

----------
# System: Salmonella enterica
# Experimental details: Antibacterial activity against Salmonella enterica 349812 assessed as inhibition of visible growth incubated for 16 to 18 hrs by CLSI method
# Assay type: functional
# Details: time 16-18 hrs, read-out: MIC100
Measured MIC accompanies every entry in the list below.
Provide the reading as a plain figure in µg/mL.

Solved entries:
C[C@H]1COc2c(N3CCN(C)CC3)c(F)cc3c(=O)c(C(=O)O)cn1c23.C[C@H]1COc2c(N3CCN(C)CC3)c(F)cc3c(=O)c(C(=O)O)cn1c23.O [LEVOFLOXACIN] :: 0.25
C=CCc1ccc(OCCC[N+](C)(C)CC(=O)NCCCCC)c(-c2ccc(OCCC[N+](C)(C)CC(=O)NCCCCC)c(CC=C)c2)c1.[Br-].[Br-] :: 8

Continue with the next compound.
[Q] Which value of MIC has been reported for C=CCc1ccc(OCCCC[N+](C)(C)CC(=O)NCCCC)c(-c2ccc(OCCCC[N+](C)(C)CC(=O)NCCCC)c(CC=C)c2)c1.[Br-].[Br-] in the records?
[A] 8

----------
# Test system: Salmonella enterica
# Experimental details: Antibacterial activity against Salmonella enterica 349812 assessed as inhibition of visible growth incubated for 16 to 18 hrs by CLSI method
# Type: functional
# Details: time 16-18 hrs, read-out: MIC100
Observable: MIC (µg/mL)
Provide the reading as a plain figure in µg/mL.

C=CCc1ccc(O)c(-c2cc(CC=C)ccc2OCCCC[N+](C)(C)CC(=O)NCCCC)c1.[Br-] :: 16
C=CCc1ccc(OCC[N+](C)(C)CC(=O)N(CCCC)CCCC)c(-c2ccc(OCC[N+](C)(C)CC(=O)N(CCCC)CCCC)c(CC=C)c2)c1.[Br-].[Br-] :: 32
C=CCc1ccc(OCCC[N+](C)(C)CC(=O)NCCCC)c(-c2ccc(OCCC[N+](C)(C)CC(=O)NCCCC)c(CC=C)c2)c1.[Br-].[Br-] :: 8
C=CCc1ccc(O)c(-c2cc(CC=C)ccc2OCCCC[N+](C)(C)CC(=O)N(CCCC)CCCC)c1.[Br-] :: 32
C=CCc1ccc(OCCC[N+](C)(C)CC(=O)N(CCCC)CCCC)c(-c2ccc(OCCC[N+](C)(C)CC(=O)N(CCCC)CCCC)c(CC=C)c2)c1.[Br-].[Br-] :: 16

[Q] Which value of MIC has been reported for C=CCc1ccc(OCCCC[N+](C)(C)CC(=O)NCCC)c(-c2ccc(OCCCC[N+](C)(C)CC(=O)NCCC)c(CC=C)c2)c1.[Br-].[Br-] in the records?
[A] 8

----------
# System: Bacillus subtilis
# Experimental details: Antibacterial activity against Bacillus subtilis assessed as inhibition of visible growth incubated for 16 to 18 hrs by CLSI method
# Format: functional
# Details: time 16-18 hrs, read-out: MIC100
Observable: MIC (µg/mL)
Provide the reading as a plain figure in µg/mL.

Solved entries:
C=CCc1ccc(OCCC[N+](C)(C)CC(=O)NCC)c(-c2ccc(OCCC[N+](C)(C)CC(=O)NCC)c(CC=C)c2)c1.[Br-].[Br-] :: 4
C=CCc1ccc(OCCCC[N+](C)(C)CC(=O)NCC)c(-c2ccc(OCCCC[N+](C)(C)CC(=O)NCC)c(CC=C)c2)c1.[Br-].[Br-] :: 4
C=CCc1ccc(O)c(-c2cc(CC=C)ccc2OCC[N+](C)(C)CC(=O)NCCCC)c1.[Br-] :: 2

Continue with the next compound.
[Q] Which value of MIC has been reported for C=CCc1ccc(O)c(-c2ccc(O)c(CC=C)c2)c1 [HONOKIOL] in the records?
[A] 32

----------
# Test system: Staphylococcus aureus
# Experimental details: Antibacterial activity against methicillin-resistant Staphylococcus aureus clinical isolate M-11 assessed as inhibition of visible growth incubated for 16 to 18 hrs by CLSI method
# Assay type: functional
# Details: time 16-18 hrs, read-out: MIC100
Label key: Criterion met means MIC under 4 µg/mL; Criterion not met means MIC of 4 µg/mL or more.

Examples with answers:
C[C@H]1COc2c(N3CCN(C)CC3)c(F)cc3c(=O)c(C(=O)O)cn1c23.C[C@H]1COc2c(N3CCN(C)CC3)c(F)cc3c(=O)c(C(=O)O)cn1c23.O :: Criterion met
C=CCc1ccc(OCC[N+](C)(C)CC(=O)NCCC)c(-c2ccc(OCC[N+](C)(C)CC(=O)NCCC)c(CC=C)c2)c1.[Br-].[Br-] :: Criterion not met
C=CCc1ccc(OCCC[N+](C)(C)CC(=O)NCC)c(-c2ccc(OCCC[N+](C)(C)CC(=O)NCC)c(CC=C)c2)c1.[Br-].[Br-] :: Criterion not met
C=CCc1ccc(OCCCC[N+](C)(C)CC(=O)NCCCCC)c(-c2ccc(OCCCC[N+](C)(C)CC(=O)NCCCCC)c(CC=C)c2)c1.[Br-].[Br-] :: Criterion met
C=CCc1ccc(O)c(-c2cc(CC=C)ccc2OCC[N+](C)(C)CC(=O)NCCCC)c1.[Br-] :: Criterion not met
C=CCc1ccc(OCCCC[N+](C)(C)CC(=O)NCCCCCC)c(-c2ccc(OCCCC[N+](C)(C)CC(=O)NCCCCCC)c(CC=C)c2)c1.[Br-].[Br-] :: Criterion met
C=CCc1ccc(OCC[N+](C)(C)CC(=O)NCCCCCC)c(-c2ccc(OCC[N+](C)(C)CC(=O)NCCCCCC)c(CC=C)c2)c1.[Br-].[Br-] :: Criterion not met
C=CCc1ccc(OCCCC[N+](C)(C)CC(=O)NCCCC)c(-c2ccc(OCCCC[N+](C)(C)CC(=O)NCCCC)c(CC=C)c2)c1.[Br-].[Br-] :: Criterion met

[Q] Is it true that MIC reported for C=CCc1ccc(O)c(-c2cc(CC=C)ccc2OCC[N+](C)(C)CC(=O)NCCCCCC)c1.[Br-] is less than 4 µg/mL?
[A] Criterion not met

[Q] Is it true that MIC reported for C=CCc1ccc(O)c(-c2cc(CC=C)ccc2OCCC[N+](C)(C)CC(=O)NCCCC)c1.[Br-] is less than 4 µg/mL?
[A] Criterion not met

[Q] Is it true that MIC reported for C=CCc1ccc(OCCCC[N+](C)(C)CC(=O)NCC)c(-c2ccc(OCCCC[N+](C)(C)CC(=O)NCC)c(CC=C)c2)c1.[Br-].[Br-] is less than 4 µg/mL?
[A] Criterion not met
